test system: anthrax toxin (PA + LF) cytotoxicity in RAW264.7 cells; type: cell-based, murine; conditions: 100 µM inhibitor, 2 h
property label: protection against anthrax toxicity (in words)

N=C(N)Nc1ccc(O[C@@H]2CCC[C@H](Oc3ccc(NC(=N)N)cc3NC(=N)N)C2)c(NC(=N)N)c1    excellent protection
N=C(N)Nc1ccc(OCCCOc2ccc(NC(=N)N)cc2NC(=N)N)c(NC(=N)N)c1    excellent protection
N=C(N)Nc1ccc(Oc2cccc(Oc3ccc(NC(=N)N)cc3NC(=N)N)c2)c(NC(=N)N)c1    excellent protection
